- reported conditions: in isopropyl acetate, 288.15 K
observable: solubility (mole fraction)
Answer as a number with no unit attached.

### Prompt solubility (mole fraction) for COc1ccc(C(=O)O)cc1 ?
### Response 0.00732

----------
- reported conditions: in sec-butanol, 313.15 K
observable: solubility (mole fraction)
Answer as a number with no unit attached.

### Prompt solubility (mole fraction) for COc1ccc(C(=O)O)cc1 ?
### Response 0.0219

----------
- reported conditions: in n-pentanol, 293.15 K
observable: solubility (mole fraction)
Answer as a number with no unit attached.

### Prompt solubility (mole fraction) for COc1ccc(C(=O)O)cc1 ?
### Response 0.0101

----------
- reported conditions: in isopropyl acetate, 293.15 K
observable: solubility (mole fraction)
Answer as a number with no unit attached.

### Prompt solubility (mole fraction) for COc1ccc(C(=O)O)cc1 ?
### Response 0.00833

----------
- reported conditions: in 2-butanone, 288.15 K
observable: solubility (mole fraction)
Answer as a number with no unit attached.

### Prompt solubility (mole fraction) for COc1ccc(C(=O)O)cc1 ?
### Response 0.0128

----------
- reported conditions: in isopropyl acetate, 318.15 K
observable: solubility (mole fraction)
Answer as a number with no unit attached.

### Prompt solubility (mole fraction) for COc1ccc(C(=O)O)cc1 ?
### Response 0.0179

----------
- reported conditions: in n-pentanol, 303.15 K
observable: solubility (mole fraction)
Answer as a number with no unit attached.

### Prompt solubility (mole fraction) for COc1ccc(C(=O)O)cc1 ?
### Response 0.014

----------
- reported conditions: in THF, 328.15 K
observable: solubility (mole fraction)

### Prompt solubility (mole fraction) for COc1ccc(C(=O)O)cc1 ?
### Response 0.0991
